tested on: 3T3-L1; assay: Cytotoxicity against mouse 3T3L1 cells at 50 uM after 48 hrs by sulforhodamine B assay; assay type: cell-based; settings: 3t3-l1, 48 h
readoutLabel: Activity

compoundSmiles: C=Cc1cc2c(=O)c3ccccc3oc2c(OC)c1O
readoutLabel: Activity
endpointValue: 51 to 75%

Name the recorded Activity for COc1cc2oc3c(OC)c4c(cc3c(=O)c2cc1OC)OC(C)(C)CC4 .
0 to 25%

Name the recorded Activity for C#CCOc1ccc2c(=O)c3ccc(OCC#C)cc3oc2c1 .
0 to 25%

Name the recorded Activity for O=c1c2cc(O)ccc2oc2cccc(O)c12 .
0 to 25%

Name the recorded Activity for O=c1c2ccccc2oc2c(O)cccc12 .
0 to 25%

Name the recorded Activity for CCCOc1ccc(NNC(=O)c2ccncc2)c2c(=O)c3ccccc3sc12 .
51 to 75%

Name the recorded Activity for O=c1c2ccccc2oc2ccc(O)c(O)c12 .
0 to 25%

Name the recorded Activity for COC(=O)c1ccccc1Oc1ccc(OC)c(OC)c1 .
51 to 75%

Name the recorded Activity for CCCOc1ccc(NCCN(CC)CC)c2c(=O)c3ccccc3sc12.Cl .
76 to 100%

Name the recorded Activity for CCN(CC)c1ccc2c(=O)c3cc4c(c(OC)c3oc2c1)CCC(C)(C)O4 .
51 to 75%

Name the recorded Activity for Cc1c(O)cc2oc3ccccc3c(=O)c2c1O .
0 to 25%

Name the recorded Activity for C#CCOc1ccc(/C=C/C(=O)/C=C/c2ccc(OCC#C)c(OC)c2)cc1OC .
0 to 25%

Name the recorded Activity for COc1cc([C@H]2Oc3ccc4c(=O)c5ccccc5oc4c3O[C@@H]2CO)ccc1O .
0 to 25%

Name the recorded Activity for COc1cc(/C=C/C(=O)/C=C/c2ccc(OCc3cn(CCO[C@H]4O[C@@H](COC(C)=O)[C@H](OC(C)=O)[C@@H](OC(C)=O)[C@@H]4NC(C)=O)nn3)c(OC)c2)ccc1OCc1cn(CCO[C@@H]2O[C@H](COC(C)=O)[C@@H](OC(C)=O)[C@H](OC(C)=O)[C@@H]2NC(C)=O)nn1 .
0 to 25%

Name the recorded Activity for O=c1c2ccc(O)cc2oc2cc(O)ccc12 .
0 to 25%

Name the recorded Activity for CC(C)=CCOc1ccc2oc3ccccc3c(=O)c2c1OCC=C(C)C .
51 to 75%

Name the recorded Activity for O=c1c2ccccc2oc2cccc(OCCCCCBr)c12 .
26 to 50%

Name the recorded Activity for COc1cc(CO)c2c(=O)c3ccccc3oc2c1OC .
26 to 50%

Name the recorded Activity for COc1cc(C(Br)Br)c2c(=O)c3ccccc3oc2c1OC .
51 to 75%

Name the recorded Activity for COc1cc2oc3c(OC)c4c(cc3c(=O)c2cc1OC)CCC(C)(C)O4 .
0 to 25%

Name the recorded Activity for COc1ccc2c(=O)c3cc(C(=O)N[C@@H](CO)c4ccccc4)ccc3oc2c1 .
0 to 25%

Name the recorded Activity for O=C(O)Cc1ccc2oc3ccccc3c(=O)c2c1 .
0 to 25%

----------
system: 3T3-L1; experiment: Cytotoxicity against mouse 3T3L1 cells at 50 uM after 48 hrs by sulforhodamine B assay; type: cell-based; conditions: 3t3-l1, 48 h
readoutLabel: Activity

compoundSmiles: COc1cccc2oc3ccccc3c(=O)c12
Activity: 0 to 25%

Alright, here's another molecule for you.
Name the recorded Activity for CCCOc1ccc(OC)c2c(=O)c3ccccc3sc12 .
51 to 75%
